Assay Protocol: NCI Yeast Anticancer Drug Screen. Data for the bub3 strain (AID 167)
Condition Label: S. cerevisiae bub3 mutant strain, at 5.0 µM (retest, dose inferred, filed as 0.5)
The panel holds about 79,000 compounds, 15% with a hit somewhere; the sample as a whole holds those more often. Activity calls are given as the source filed them. No stated cut-off is given here; in the data, active means growth inhibition above about 70%; inactive means the rest.
Answer with one of the outcomes given here: active, inactive

Record excerpt, results attached:
{"Compound String": "Cc1ccc(S(=O)(=O)NC(=O)C2C(=O)CC3(CCCCC3)CC2=O)cc1", "Assigned Label": "inactive"}
{"Compound String": "CCN(CC)C(=S)N/N=C(\\C)c1ccccc1O", "Assigned Label": "active"}

Ask | Check the results log: what was the call for "S=C(NCc1ccccn1)N/N=C/c1ccccn1" ?
Reply | inactive

Ask | Short answer needed: outcome of this test for "S=C1C(=Nc2ccccc2)N(c2ccccc2)/C(=N\c2ccccn2)N1c1ccccc1" ?
Reply | inactive

Ask | Fill in: this test's call for "COc1ccc(/C=C2\SC(=S)N(/C=C3\C(=O)N(c4ccccc4)N=C3C)C2=O)cc1OC" is ___
Reply | inactive

====

Assay Protocol: NCI Yeast Anticancer Drug Screen. Data for the wt2 strain (AID 169);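 further: 0% = growth of vehicle-treated yeast cultures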
Condition Label: S. cerevisiae wt2 strain growth inhibition; at 3.7 µM; hits give high values
About 79,000 compounds went through this panel and 15% of them were active in at least one assay; those are over-represented in the sample as a whole. Calls of active or inactive are those of the source. Cut-off read from the data, not from the text of the source: active = growth inhibition above about 70%; inactive = the rest.
Measured Metric: growth inhibition

{"Molecule": "CC(CC/C(=N/O)c1ccccc1)(CC/C(=N\\O)c1ccccc1)[N+](=O)[O-] (stereo not drawn)", "Result": "-11% (inactive)"}
{"Molecule": "CCN(CC)CCC(=O)Nc1ccc2sc3ccccc3c(=O)c2n1", "Result": "-3% (inactive)"}
{"Molecule": "CC1(C)CC(=O)C(C=NC(=S)C(N)=S)=C(O)C1", "Result": "-52% (inactive)"}
{"Molecule": "CCC[CH2][Sn]([CH2]CCC)([CH2]CCC)/[C](=C/[Si](C)(C)c1ccccc1)c1ccc2c(c1)OCO2", "Result": "35% (inactive)"}
{"Molecule": "N#CC1OB(O)c2ccccc21 (stereo not drawn)", "Result": "0% (inactive)"}

Consider "O=C1C(=O)c2cccc([N+](=O)[O-])c2-c2ccccc21" . Its measured growth inhibition is 47% (inactive)

Sample "C1=CCN([B-](c2ccccc2)[C+]2CCCCC2)C=C1" ; growth inhibition observed: 7% (inactive)

Record summary for "CCN(CC)CCNc1ccc2nc(C)n3c4ccc(O)cc4c(=O)c1c23" : reported growth inhibition = 1% (inactive)

====

Each record here notes measured growth inhibition.
Assay Protocol: NCI Yeast Anticancer Drug Screen. Data for the mgt1 strain (AID 153)
Condition Label: S. cerevisiae mgt1 mutant growth inhibition; at 1.2 µM; hits give high values
Compounds without any hit were thinned out: in the full panel of roughly 79,000, 15% have a hit.
Just the number in %, nothing appended.

The following compounds have reported results that may help.
{"Compound": "CCc1c(Cl)c(C)c(Cl)c(O)c1Cl", "growth inhibition (%)": -33}
{"Compound": "O=c1c2ccccc2nc(-c2ccc(Cl)cc2)n1O", "growth inhibition (%)": 60}
{"Compound": "CNC(=S)N/N=C(/C)CCC/C(C)=N/NC(=S)NC", "growth inhibition (%)": 3}
{"Compound": "CCC(C)COC(=O)Nc1cccc(Cl)c1 (stereo not drawn)", "growth inhibition (%)": -7}
{"Compound": "Cc1cc(OCc2nc(N)nc(N)c2-c2ccc(Cl)c(Cl)c2)ccc1[N+](=O)[O-]", "growth inhibition (%)": 2}

As a next step, examine the compound that follows.
Field growth inhibition (entry "O=C1Oc2ccccc2C(=O)/C1=C/N1C(=O)N/C(=C\c2ccccc2Br)C1=O" ) reads 0
